Target: HBO-KAT7 (Homo sapiens)
Sequence (O95251 with tags, fused parts or gaps): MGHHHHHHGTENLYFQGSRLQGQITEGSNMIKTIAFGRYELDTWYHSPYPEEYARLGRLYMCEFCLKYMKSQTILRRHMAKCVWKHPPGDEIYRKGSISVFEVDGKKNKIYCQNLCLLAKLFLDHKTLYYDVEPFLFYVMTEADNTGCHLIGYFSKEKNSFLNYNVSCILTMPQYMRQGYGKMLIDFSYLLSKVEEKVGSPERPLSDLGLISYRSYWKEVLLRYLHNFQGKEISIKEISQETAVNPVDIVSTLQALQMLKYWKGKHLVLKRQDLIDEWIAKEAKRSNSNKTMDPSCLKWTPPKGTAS
Assay: Acetyltransferase biochemical assay (AlphaScreen), KAT7
Mark 1 only for IC50 values smaller than 10 µM; exact matches and larger values are 0.

Reference set, count: 2
>>> category("CCOc1cccc2c(NS(=O)(=O)c3cc(CC)ccc3OC)noc12")
0
>>> category("O=S(=O)(Nc1noc2cccc(Cl)c12)c1cccc2nsnc12")
0

-- ask Strictly below 10 µM: is that where IC50 of `CCc1ccc(OC)c(S(=O)(=O)Nc2noc3c(-c4cncnc4)cccc23)c1` sits?
-- reply 0

-- ask Strictly below 10 µM: is that where IC50 of `COc1cccc(OC)c1S(=O)(=O)Nc1noc2ccc(OC(F)(F)F)cc12` sits?
-- reply 1

-- ask Strictly below 10 µM: is that where IC50 of `CC(C)c1ccc(S(=O)(=O)Nc2noc3cccc(Cl)c23)cc1` sits?
-- reply 1
